- Read-out: Hypoxia-inducible factor 1-alpha (Homo sapiens)
- test_details: LTEA_HepaRG_HIF1A: Life Technologies and Expression Analysis (LTEA) Assay for Hypoxia-inducible factor 1 (HIF1A) Trancription factor using HepaRG (AID 2283503);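 also: HIF1A transcript by TaqMan qRT-PCR normalized to ACTB GAPDH and POLR2A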
- run_conditions: mRNA level, 48 h; actives raise or lower the signal
- Experimental: LTEA_HepaRG is a cell based, multiplexed-readout assay that uses HepaRG, a human liver cell line, with measurements taken at 48 hours after chemical dosing on a 96-well plate.LTEA_HepaRG_HIF1A is one of 102 assay component(s) measured in the LTEA HepaRG cell culture assay. It is a marker of Cell proliferation, survival, death.Data from the assay component LTEA_HepaRG_HIF1A was analyzed into 1 endpoint. […]
The source made the active and inactive calls. The calls were made as follows: active = hit-call score of the fitted dose curve at least 0.9, where 1 is the maximum; inactive = score below 0.9.
Assign a class; possible classes are active, inactive

[in] I'd appreciate the recorded outcome for `c1ccc(OP(Oc2ccccc2)Oc2ccccc2)cc1` from this test.
[out] inactive

[in] Request: `Cc1ccc(O)cc1C`
[out] inactive

[in] Request: `O=[N+]([O-])c1ccccc1`
[out] inactive

[in] Request: `ClC(Cl)(Cl)c1ccccc1`
[out] inactive

[in] Request: `CC(C)(C)OOC(C)(C)C`
[out] inactive

[in] Request: `CCNc1nc(Cl)nc(NC(C)(C)C)n1`
[out] inactive

[in] Request: `Nc1ccc2ccccc2c1`
[out] inactive

[in] Request: `c1nc[nH]n1`
[out] inactive

[in] Request: ClC1=C(Cl)C2(Cl)C3C(Cl)C(Cl)CC3C1(Cl)C2(Cl)Cl (stereo unspecified)
[out] active

[in] Request: `[N-]=[N+]=[N-]`
[out] inactive

[in] Request: `CCCCN(CCCC)SN(C)C(=O)Oc1cccc2c1OC(C)(C)C2`
[out] inactive

[in] Request: `Cc1cccc(N)c1`
[out] inactive

[in] Request: `Nc1cc2c3c(c1)C(c1ccccc1)=N[C@@H](NC(=O)c1cccnc1)C(=O)N3CC2`
[out] inactive

[in] Request: `CC(C)(C)c1ccc(O)cc1`
[out] inactive

[in] Request: `CCOS(=O)(=O)OCC`
[out] inactive

[in] Request: `Nc1ccc(Cl)cc1`
[out] inactive

[in] Request: `CCC(C)(C)c1ccc(O)cc1`
[out] inactive

[in] Request: OCC1CO1 (stereo unspecified)
[out] inactive

[in] Request: `c1cc2c3c(cccc3c1)CC2`
[out] inactive

[in] Request: `Cc1ccc([N+](=O)[O-])cc1C`
[out] inactive

[in] Request: `CN(C)C(=O)Cl`
[out] inactive
